These entries and their values trace back to a melting point compilation (Tetko et al.; mined from patent text by program, amines drawn as free bases though some values may be those of a salt).

PROPERTY: melting point

Example results:
Ask: Which value of melting point has been reported for O=C1c2nccnc2C(Cl)N1c1ccc2ccc(Cl)nc2n1 (stereo not given) in the records?
Result: 264 °C

Ask: Which value of melting point has been reported for "COc1cc(CNc2cc(Cl)c(N=CN(C)C)c(Cl)c2)cc(OC)c1" in the records?
Result: 124 to 125 °C

Ask: Which value of melting point has been reported for "CCOC(=O)c1nnc2ccc(NC(=O)c3ccccc3OC(C)=O)cc2c1O" in the records?
Result: 240 to 242 °C

Ask: Which value of melting point has been reported for CC1CNc2c(C#N)cnn2C1c1cc(Cl)ccc1Cl (stereo not given) in the records?
Result: 184 to 185 °C

Now turn to the next compound.
Ask: Which value of melting point has been reported for "COc1ccccc1NC(=O)Nc1nc(Oc2ccc3ccccc3c2)nc(N(CCC(=O)O)Cc2ccc(F)cc2)n1" in the records?
Result: 211 to 217 °C

====

Items are presented alongside their recorded melting point.

Ask: Which value of melting point has been reported for CCCN1C[C@H]2CCc3cccc(O)c3[C@H]2C1 (relative stereo) in the records?
Result: 180 to 184 °C

Ask: Which value of melting point has been reported for "CC(C)C[C@H](NC(=O)OCc1ccccc1)C(=O)N[C@@H](Cc1ccccc1)C(=O)CN(C)C" in the records?
Result: 81 to 82 °C

Ask: Which value of melting point has been reported for "Cn1ccc2cc(N3Cc4c(N)cccc4C3=O)ccc21" in the records?
Result: 198 to 203 °C

Ask: Which value of melting point has been reported for "CC(C)(C)c1cc(-c2ccc(N)cc2)cc(C(C)(C)C)c1O" in the records?
Result: 113 to 114 °C

Ask: Which value of melting point has been reported for "CC(C)c1cc(C(C)C)c(CC(=O)NS(=O)(=O)Oc2c(C(C)C)cc(C=CC#N)cc2C(C)C)c(C(C)C)c1" in the records?
Result: 157 to 160 °C

Ask: Which value of melting point has been reported for "Cc1[nH]c2ccccc2c1Cc1ccncc1" in the records?
Result: 126 to 127 °C

Others:
Ask: Which value of melting point has been reported for "N#CCCSN1C(=O)COCC1=O" in the records?
Result: 121 to 122 °C

====

PROPERTY: melting point

Example results:
Ask: Which value of melting point has been reported for "CCCCCCCCCCCCCCCCCCOC(=O)C=CC(=O)OCC" in the records?
Result: 42 °C

Ask: Which value of melting point has been reported for "Cc1ccnc(Sc2nc(C)c(CC(=O)O)s2)c1C(=O)O" in the records?
Result: 208 to 210 °C

Ask: Which value of melting point has been reported for "O=C(O)CC(=Cc1ccccc1)C(=O)O" in the records?
Result: 114 °C

Ask: Which value of melting point has been reported for CC1(C)CCC(C)(C)C2=C1CC(Cl)C(C)(O)C2 (configuration not stated) in the records?
Result: 122 to 124 °C

Ask: Which value of melting point has been reported for "NC(=O)c1c(O)cccc1OCCBr" in the records?
Result: 120 to 121 °C

Ask: Which value of melting point has been reported for CCOC(=O)CC(NC(=O)c1ccccc1)C(=O)C(C)C (configuration not stated) in the records?
Result: 44 to 46 °C

Now turn to the next molecule.
Ask: Which value of melting point has been reported for "COC(=O)c1ccccc1-c1nn[nH]n1" in the records?
Result: 132 to 135 °C

====

Items are presented alongside their recorded melting point.

Example results:
Ask: Which value of melting point has been reported for CCCN(C(=S)NC(=O)c1ccccc1)C(CO)c1ccccc1 (centres undefined) in the records?
Result: 82 °C

Ask: Which value of melting point has been reported for "CC(=O)Nc1sc(C(=O)OCc2ccccc2)c(C)c1C(=O)OC(C)(C)C" in the records?
Result: 157 to 158 °C

Ask: Which value of melting point has been reported for "CCNC(=O)c1ccccc1NS(=O)(=O)C(F)(F)F" in the records?
Result: 85.5 to 87 °C

Ask: Which value of melting point has been reported for "NC(=NO)c1ncn2c1[C@@H]1CCN1C(=O)c1cc(F)ccc1-2" in the records?
Result: 248 to 250 °C

Ask: Which value of melting point has been reported for "COC(=O)c1sccc1S(=O)(=O)NC(=O)Nc1nc(OC)c2cc(C)oc2n1" in the records?
Result: 194 to 196 °C

Ask: Which value of melting point has been reported for "CN(CCCNc1ncc(Cc2ccc(Cl)c(Cl)c2)c(=O)[nH]1)c1ccccn1" in the records?
Result: 86 to 92 °C

Ask: Which value of melting point has been reported for Cc1ccc2oc(NC(CN3CCN(Cc4ccc(Cl)c(Cl)c4)CC3)C(C)C)nc2c1 (centres undefined) in the records?
Result: 155 to 157 °C

Ask: Which value of melting point has been reported for "NCCCCn1ccnc1-c1ccccc1" in the records?
Result: 82 to 84 °C

Ask: Which value of melting point has been reported for CCOC(=O)C1=C(C)NC(C=NOC)=C(C(=O)OCC)C1c1ccccc1Cl (centres undefined) in the records?
Result: 110 to 112 °C

Ask: Which value of melting point has been reported for "O=C(O)c1cc(OCCCCCCc2cccc(O)c2O)ccc1O" in the records?
Result: 159 to 161 °C

Others:
Ask: Which value of melting point has been reported for "CN(C)c1cccc2c(S(=O)(=O)Nc3ccc(Cl)nc3)cccc12" in the records?
Result: 145 to 146 °C

====

Items are presented alongside their recorded melting point.
Hi! Could you send only the number? It should be in °C, unit omitted.

Ask: Which value of melting point has been reported for CCNc1c(S(=O)C(F)(F)F)c(C)nn1-c1c(Cl)cc(C(F)(F)F)cc1Cl (stereo not given) in the records?
Result: 76

Ask: Which value of melting point has been reported for O=c1[nH]c2cc(Cl)ccc2n1C1CCN(C[C@H]2CO[C@@H](c3ccc(F)cc3)C2)CC1 (relative stereo) in the records?
Result: 208

Now turn to the next molecule.
Ask: Which value of melting point has been reported for CCN(CC)c1ccc(C=C2CC(C)CC(=Cc3ccc(N(CC)CC)cc3)C2=O)cc1 (stereo not given) in the records?
Result: 169

====

Items are presented alongside their recorded melting point.

Example results:
Ask: Which value of melting point has been reported for "O=C(O)CCN1CCN(Cc2ccccc2)CC1" in the records?
Result: 165 to 166 °C

Ask: Which value of melting point has been reported for CC(C)CCCC(C)CCCC(C)CCCC(C)(O)C(CO)NCCO (stereo not given) in the records?
Result: 49.1 to 50.2 °C

Ask: Which value of melting point has been reported for "O=C1CCC(c2c[nH]c3ccc(F)cc23)CC1" in the records?
Result: 112 to 114 °C

Ask: Which value of melting point has been reported for CC1Nc2cc(N(C)C(=O)c3ccc(-c4ccccc4)cc3)ccc2N1C (stereo not given) in the records?
Result: 213 to 214 °C

Others:
Ask: Which value of melting point has been reported for "C[C@@H]1OC(=O)[C@@H](NC(=O)OC(C)(C)C)COC[C@H](Cc2ccccc2)[C@H]1OCCC(=O)N(C)C" in the records?
Result: 142 to 143 °C

====

Items are presented alongside their recorded melting point.

Example results:
Ask: Which value of melting point has been reported for CCc1nc2cc(F)ccc2n1C1CC2CCC(C1)N2CCCSc1ccc(F)cc1 (stereo not given) in the records?
Result: 127 to 128 °C

Ask: Which value of melting point has been reported for O=C(CCc1ccccc1)N[C@H](Cc1ccc(C(F)(F)F)cc1)[C@@H](O)c1ccc(F)cc1 (racemic) in the records?
Result: 144 to 145 °C

Ask: Which value of melting point has been reported for CC(=O)OC(c1cccnc1)c1c(O)c(=O)ccn1C (stereo not given) in the records?
Result: 153 to 154 °C

Ask: Which value of melting point has been reported for "CCOC(=O)c1ccc(C(F)(F)F)c(N)c1" in the records?
Result: 38 to 39 °C

Others:
Ask: Which value of melting point has been reported for "Cn1cc(-c2ccccc2)c(=O)c(-c2ccco2)c1" in the records?
Result: 191 to 192 °C

====

Items are presented alongside their recorded melting point.

Example results:
Ask: Which value of melting point has been reported for "NC(=O)N(O)Cc1ccc(-c2ccccn2)s1" in the records?
Result: 168 °C

Ask: Which value of melting point has been reported for "O=C(NCCN1C=CC(c2ccccc2)=CC1)c1ccccc1S(=O)(=O)O" in the records?
Result: 272 to 274 °C

Ask: Which value of melting point has been reported for "CC(C)C[C@H](NC(=O)OCc1ccccc1)C(=O)N[C@@H](Cc1ccccc1)C(=O)O" in the records?
Result: 120 to 122 °C

Ask: Which value of melting point has been reported for "C#CCOc1cc(Cl)nc(Nc2ccccc2)n1" in the records?
Result: 92 to 93 °C

Ask: Which value of melting point has been reported for "CSc1ccc(-c2nc(SC)c(C#N)c(=O)n2-c2ccc(C)cc2)cc1" in the records?
Result: 196 to 198 °C

Ask: Which value of melting point has been reported for "CCOC(=O)c1ccc(NC(=O)C=C(c2ccc(C)cc2)c2ccc(C)cc2)cc1" in the records?
Result: 151 to 154 °C

Ask: Which value of melting point has been reported for O=C1OC(O)c2ccc([N+](=O)[O-])cc21 (stereo not given) in the records?
Result: 157 to 160 °C

Ask: Which value of melting point has been reported for "CC(=O)NS(=O)(=O)c1ccc2ccc(Oc3c(Cl)cc(C(F)(F)F)cc3Cl)cc2c1" in the records?
Result: 137 °C

Ask: Which value of melting point has been reported for COc1cc2c(cc1OC)[C@@H]1CN(C)CC[C@@H]1N=C2c1ccc([N+](=O)[O-])cc1 (relative stereo) in the records?
Result: 194 to 195 °C

Ask: Which value of melting point has been reported for CC1C(=O)Oc2c1cccc2S(=O)c1ccccc1Cl (stereo not given) in the records?
Result: 120 to 122 °C

Others:
Ask: Which value of melting point has been reported for "O=S(=O)(Nc1nnc(Cl)cc1OCc1cccnc1)c1cccc(Cl)c1Cl" in the records?
Result: 216 to 217 °C

Ask: Which value of melting point has been reported for "CC(C)(C#N)c1cc(Cn2cncn2)cc(C(C)(C)C(N)=O)c1" in the records?
Result: 51 to 53 °C

Ask: Which value of melting point has been reported for "CCOC(=O)NC(=NC(=O)c1nc(Cl)c(N)nc1N)NC(=O)OCC" in the records?
Result: 213 °C

Ask: Which value of melting point has been reported for "Cc1cn(-c2nccc3[nH]c(=O)ccc23)cn1" in the records?
Result: 257 to 259 °C

Ask: Which value of melting point has been reported for "COc1ccc2c(c1)C(c1ccc([N+](=O)[O-])cc1)=NNC(=O)C2" in the records?
Result: 282 °C

Ask: Which value of melting point has been reported for C[C@H](NC(=O)OC(C)(C)C)C(=O)NC1CCC(Nc2cccc3c2C(=O)c2ccccc2C3=O)CC1 (stereo not given in full) in the records?
Result: 151 °C

Ask: Which value of melting point has been reported for "CCOC(=NC(=O)c1ccc(F)cc1)N1Cc2ccccc2-c2ccccc2C1" in the records?
Result: 109 to 110 °C

Ask: Which value of melting point has been reported for CCc1cccc(-c2ccc(S(=O)(=O)N3c4ccccc4CC3C(=O)NCc3ccc(CC(=O)O)cc3)cc2)c1 (stereo not given) in the records?
Result: 98 °C

Ask: Which value of melting point has been reported for "COc1cc(C(CCl)(OC)OC)ccc1OS(=O)(=O)c1ccccc1" in the records?
Result: 130 °C

Ask: Which value of melting point has been reported for "O=C1N[C@@H](Cc2ccccc2)C(c2ccccc2)(c2ccccc2)O1" in the records?
Result: 259 to 261 °C

Ask: Which value of melting point has been reported for "O=C(O)c1cc2c(s1)CCC2=O" in the records?
Result: 195 to 196 °C
